Recorded values, source PubChem BioAssay (NCI).

System: NCI-H23 lung
Assay: NCI-60 one-dose screen, 48 h (100 = growth as untreated, 0 = no growth, -100 = all killed)
Conditions: 10 µM unless noted
About 83,000 compounds went through this panel and 20% of them were active in at least one assay; those are over-represented in the sample as a whole.

smiles_repr: NS(=O)(=O)c1ccc(CCn2c(-c3ccc(C(=O)O)cc3)nc(-c3ccccc3)c2-c2ccccc2)cc1
target_system: NCI-H23 lung
unit_tag: %
growth: 98.4

smiles_repr: Brc1cc(-c2cc(-c3ccc4c(c3)OC=CO4)[nH]n2)cs1
target_system: NCI-H23 lung
unit_tag: %
growth: 79.3

smiles_repr: CN1CCN(Cc2ccc(NC(=O)c3cncc(C#Cc4cnc5ccc(O[C@@H]6CCOC6)nn45)c3)cc2C(F)(F)F)CC1
target_system: NCI-H23 lung
unit_tag: %
growth: -65.2

smiles_repr: O=C(CCCCCCN1CC(=O)N2[C@@H](c3ccccc3Br)c3[nH]c4ccccc4c3C[C@H]2C1=O)NO
target_system: NCI-H23 lung
unit_tag: %
growth: 63.9

smiles_repr: CCOC(=O)c1ccc(NC2=C(Cl)C(=O)c3nc(C)ccc3C2=O)cc1
target_system: NCI-H23 lung
unit_tag: %
growth: 52

====

Test system: LOX IMVI melanoma
Assay: NCI-60 one-dose screen, 48 h (100 = growth as untreated, 0 = no growth, -100 = all killed)
Settings: 10 µM unless noted
The panel holds about 83,000 compounds, 20% with a hit somewhere; the sample as a whole holds those more often.
Lab note: cut-off is 30%. Strictly less in growth is T. Exactly 30% or more is F.

compound: CCN(CC)CCOc1ccc(C(=C(C)Cc2ccc(OC)cc2)c2ccc(OCCN(CC)CC)cc2)cc1
group: T

compound: CCN(CC)c1ccc(/C=N/NC(=O)c2ccc(S(N)(=O)=O)cc2)cc1
group: T

compound: C/C(=N\NC(=O)/C=C/CC(=O)O)c1nnn(-c2ccc([N+](=O)[O-])cc2)c1C
group: F

compound: CC(Nc1c(C#N)cnc2ccc(-c3cncc(-c4n[nH]c(=O)o4)c3)cc12)c1ccccc1 (centres undefined)
group: T

compound: CCc1cc2c(cc1Cl)nc1c(=O)[nH]c(=O)nc-1n2CCOCC(C)(C)C
group: F

compound: COc1ccc(C2CC(c3cccc(OCCCCOc4cccc(C5=NOC(c6ccc(OC)cc6)C5)c4)c3)=NO2)cc1 (centres undefined)
group: T

compound: Cn1c(SCC(=O)c2ccc(F)cc2)nc2ccccc2c1=O
group: F

compound: COc1ccc(/C(=N\N=C(N)N)c2ccc(Cl)cc2)cc1OC
group: F

compound: NS(=O)(=O)c1ccc(Nc2nc(N/N=C/C=C/c3ccccc3)nc(Nc3ccccc3)n2)cc1
group: T

compound: Cc1ccc(NC2=C(Cl)C(=O)c3nc(C)ccc3C2=O)c(C)c1
group: T

compound: COc1cc(-c2nc(-c3ccccc3)[nH]c2-c2ccnc(NCCCNS(=O)(=O)c3ccc(C)cc3)n2)ccc1F
group: F

compound: CC(=O)OCCCCN1C=C/C(=C\C(=O)n2ccc3ccccc32)c2ccccc21
group: F

compound: O=C1c2ccccc2C23C(=C(c4cncnc4)c4ccccc42)CCCN13 (centres undefined)
group: F

compound: COc1cc2oc(-c3cccc(NC(=O)c4cccc([N+](=O)[O-])c4)c3)cc(=O)c2c(OC)c1OC
group: F

compound: O=C(N/N=C\c1ccc(F)cc1)c1ccc2nc(-c3ccc(Br)cc3)[nH]c2c1
group: T

compound: COc1ccc2c(c1)c(-c1nc(N)nnc1-c1c[nH]c3ccccc13)cn2C
group: F

compound: CCCC[n+]1ccc(SCC(=O)n2ccc3ccccc32)c2ccccc21
group: F

compound: Cc1ccc2c(n1)C(=O)C(Cl)=C(Nc1ccc(C(C)C)cc1)C2=O
group: T

compound: O=C1[C@H]2Cc3c([nH]c4ccccc34)[C@H](c3ccc(Br)cc3)N2C(=O)CN1C1CCN(CC2CCCCC2)CC1
group: T
